Provenance of the data: the FLAb antibody collection (doi:10.7554/elife.23156)

Below: a set of entries, each annotated with reported pKd.
B1: scFv; the commonest letter at each place (parent)
chain 1: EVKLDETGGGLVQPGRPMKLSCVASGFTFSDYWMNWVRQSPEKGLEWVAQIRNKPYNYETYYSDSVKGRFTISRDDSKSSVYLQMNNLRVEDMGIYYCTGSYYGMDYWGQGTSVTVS
chain 2: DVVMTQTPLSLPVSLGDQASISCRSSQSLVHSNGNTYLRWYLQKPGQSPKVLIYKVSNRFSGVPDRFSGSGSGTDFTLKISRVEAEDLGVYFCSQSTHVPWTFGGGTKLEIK

Variants of: B1
measurementNotes: Kd (Tite-Seq)
measurementSetup: with fluorescein; format: scFv 4-4-20, heavy + light
pKd: −log10 of the molar value.

Past entries and their recorded results:
mutationList	pKd
chain 1 T28I F29L	7.50
chain 1 S101W Y107K	≤ 5.00
chain 1 G100Q Y103R D106L	≤ 5.00
chain 1 G100C W108G	≤ 5.00
chain 1 G100R W108C	≤ 5.00

Tell us which pKd value is on record for chain 1 S101L Y103I
≤ 5.00

Consider the variant chain 1 T28F . State its measured pKd.
8.35

For chain 1 D106G W108E , write its pKd.
≤ 5.00

Quick one: give measured pKd for chain 1 F29P M34C
≤ 5.00

Input chain 1 T28R W36S , output reported pKd.
≤ 5.00

Please give measured pKd of the following entry: chain 1 Y107T G109C
≤ 5.00
